- Tested system: Isocitrate dehydrogenase [NADP] cytoplasmic (Homo sapiens, UniProt O75874, R132H)
- Sequence (O75874 2-414 R132H limits assumed): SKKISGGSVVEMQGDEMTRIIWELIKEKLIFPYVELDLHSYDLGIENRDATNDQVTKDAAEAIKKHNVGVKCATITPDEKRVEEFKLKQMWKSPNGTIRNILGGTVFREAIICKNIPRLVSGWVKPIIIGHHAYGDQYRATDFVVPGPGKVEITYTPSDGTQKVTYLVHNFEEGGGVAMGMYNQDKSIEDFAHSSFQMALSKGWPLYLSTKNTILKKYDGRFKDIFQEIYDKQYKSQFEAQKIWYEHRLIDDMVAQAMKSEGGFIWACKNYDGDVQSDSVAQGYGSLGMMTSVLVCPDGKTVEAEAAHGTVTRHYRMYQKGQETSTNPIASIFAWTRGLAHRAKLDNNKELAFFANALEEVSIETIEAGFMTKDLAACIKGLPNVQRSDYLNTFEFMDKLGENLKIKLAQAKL
- Test method notes: Inhibition of recombinant human N-terminal GST-fused IDH1 R132H mutant expressed in Escherichia coli using alpha-ketoglutarate as substrate preincubated for 15 mins followed by substrate addition
pIC50: −log10 of the molar value.
Reported metric: pIC50

[[record]]
molecule = "Cn1nc(C2=C(c3cn(CCCn4ccnc4)c4ccccc34)C(=O)NC2=O)c2cccnc21"
value_measured = 7.30

[[record]]
molecule = "Cn1nc(C2=C(c3cn(CCn4ccnc4)c4ccccc34)C(=O)NC2=O)c2cccnc21"
value_measured = 5.35

[[record]]
molecule = "O=C1NC(=O)C(n2cnc3ccccc32)=C1c1cn(CCCn2ccnc2)c2ccccc12"
value_measured = 5.10

[[record]]
molecule = "Cc1cccc2c(C3=C(c4nn(C)c5ncccc45)C(=O)NC3=O)cn(CCCn3ccnc3)c12"
value_measured = 6.54

[[record]]
molecule = "Cn1cc(C2=C(c3cn(CCCn4ccnc4)c4ccccc34)C(=O)NC2=O)c2ccccc21"
value_measured = 5.83


The measurements presented in this section are drawn from ChEMBL document CHEMBL4330107.
